Assay: Toxicity (lethality) after i.p. or oral administration to mice
Details: mouse, in vivo, ip
Assay metric: selectivity ratio

Name the reported selectivity ratio value associated with the molecule C=C=CC(N)CCC(=O)O (racemic) [(R,S)-allenyl GABA, (R,S)-4-amino-hepta-5,6-dienoic acid]
4 to 5
